Field: Ki. Provide a value for each of the compounds that follow.
Subject of test: ENPP1 on MDA-MB-231 cells (Homo sapiens (Human))
Sequence (P22413 whole entry): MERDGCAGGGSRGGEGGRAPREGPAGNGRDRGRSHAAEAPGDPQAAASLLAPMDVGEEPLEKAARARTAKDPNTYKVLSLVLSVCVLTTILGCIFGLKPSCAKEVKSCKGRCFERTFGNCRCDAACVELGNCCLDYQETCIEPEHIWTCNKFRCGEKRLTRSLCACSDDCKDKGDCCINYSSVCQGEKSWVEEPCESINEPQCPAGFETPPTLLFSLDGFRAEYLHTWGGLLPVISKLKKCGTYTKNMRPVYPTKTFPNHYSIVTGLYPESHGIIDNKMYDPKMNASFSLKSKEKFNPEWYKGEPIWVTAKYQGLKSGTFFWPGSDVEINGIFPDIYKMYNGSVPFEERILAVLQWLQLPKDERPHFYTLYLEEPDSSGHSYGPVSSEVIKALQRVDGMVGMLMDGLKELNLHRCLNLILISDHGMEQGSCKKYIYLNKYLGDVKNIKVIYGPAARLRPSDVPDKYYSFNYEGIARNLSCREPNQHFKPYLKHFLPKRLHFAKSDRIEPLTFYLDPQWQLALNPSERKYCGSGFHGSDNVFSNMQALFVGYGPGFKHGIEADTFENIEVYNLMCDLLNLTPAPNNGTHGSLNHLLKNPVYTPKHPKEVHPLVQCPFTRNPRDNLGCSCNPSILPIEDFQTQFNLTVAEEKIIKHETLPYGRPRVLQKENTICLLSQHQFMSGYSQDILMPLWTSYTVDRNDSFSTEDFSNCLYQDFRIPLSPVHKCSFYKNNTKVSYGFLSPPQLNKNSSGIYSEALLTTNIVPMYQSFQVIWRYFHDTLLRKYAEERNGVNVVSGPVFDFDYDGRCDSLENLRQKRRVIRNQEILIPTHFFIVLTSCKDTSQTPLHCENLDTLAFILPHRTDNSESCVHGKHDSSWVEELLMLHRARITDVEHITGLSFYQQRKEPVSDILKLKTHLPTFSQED
Assay: Assay 3: inhibition of ENPP1 hydrolysis of AMP p-nitrophenyl ester on MDA-MB-231 cells
# include the unit after the value

Exercise: What does the data say about its Ki? Entry: COc1cc2nncc(N3CCC4(CC3)CCN(S(=N)(=O)C3CC3)C4)c2cc1Cl (stereo not shown)
Key: 6.8 nM

Exercise: Consider the compound COc1cccc2c(N3CCC(CS(C)(=N)=O)CC3)c(C#N)c(C)nc12 (stereo not shown) and give its measured Ki.
Key: 12 nM

Exercise: Looking for the measured Ki of COc1cccc2c(N3CCC(CS(=N)(=O)C4CC4)CC3)ncnc12 (stereo not shown) , can you help?
Key: 7.3 nM

Exercise: // query Ki value for entry COc1cccc2c(N3CC4(CCN(S(C)(=N)=O)C4)C3)ncnc12 (stereo not shown)
Key: 8 nM

* * *

I'd appreciate it if you could supply pIC50 values for the items below.
Subject of test: ENPP-1 ECD (Homo sapiens (Human), UniProt P22413)
Assay: Assay 1: inhibition of ENPP1 hydrolysis of 2′,3′-cGAMP (AMP-Glo, […] enzyme)
Measurement parameters: read-out: Assay 1 (IC50); ENPP1 hydrolysis of 2′,3′-cGAMP, AMP-Glo
pIC50: −log10 of the molar value.

Exercise: Entry CCS(=N)(=O)c1ccc(Oc2ccnc3cc(OC)ccc23)cc1 (stereo not shown) : reported pIC50 = ?
Key: > 8.00

Exercise: Consider the molecule shown here: COc1ccc2c(Oc3ccc(S(=N)(=O)C4CC4)cc3)ccnc2c1 (stereo not shown) What is its recorded pIC50?
Key: > 8.00

Exercise: Which measured pIC50 value corresponds to CC[S@@](=N)(=O)c1ccc(Oc2ccnc3cc(OC)ccc23)cc1 [Compound 103a] ?
Key: < 6.00

Exercise: Suppose we examine the molecule COc1ccc2c(Oc3ccc(S(C)(=N)=O)cc3)ccnc2c1 (stereo not shown) ; what pIC50 value has been reported?
Key: > 8.00

src = patent US11780849B2
